B1: tRNA (parent)
chain: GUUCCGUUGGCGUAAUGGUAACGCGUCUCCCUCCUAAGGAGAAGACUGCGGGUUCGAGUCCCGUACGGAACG

Variants of: B1
Assay: yeast fitness relative to wild type (ratio to wild type); higher = fitter; tRNA-Arg(CCU), competitive growth, 37 C, YPD
This sample holds only a part of the variants without activity.
Recorded metric: yeast fitness
Numbers only.

Below: 2 variants and their reported yeast fitness.
Sequence code: GUUCCGUUGGCGUAAUGGUAACGCGUCUCCCUACUAAGGAGAAGACUGCGGGUUCGAGUCAUGUAUGGAACG
Numeric value: 0.562

Sequence code: GUUCCGUUGGCGUCAUGGUAACGCGUCUCCCUCCUGAGGAAAAGACUCCGGGUUCGAGCCCCGUACGGAACG
Numeric value: 0.7

Need yeast fitness for each of these variants.
1. GUUCCGUUGGCCUAAUGGUAACGCGUCUCCCUCCUAAGGAGAAGACCGCGGGUUCGAGUCCCGUACGGAACG
2. GUUCCGGUGGCGUAAUGGUAACGCGUCUCCCUCCUAAGGAGAAGACUGCGGGUUCGAGUCCCGUACGCAACG

Result:
0.958
0.895

Need yeast fitness for each of these variants.
1. GUUCCGUUGGCGUAAUGGUAACGCGUCUCCCUCCUGAGGAGAAGACUGCGGGUUCGAGUCCCGUACGGGACG
2. GUUUCGUUGGCGUAAUGGUAACGCGUCUCCCUCCUAAGGAGAAGACUGCGGGUUCGUGUCCCGUACGGAUCG
3. GUUCCGUUGGCGUAAUGGUAACGCGUCUCCCUCCUAAGGAGAAGGCUGCGGGUUCGAGUUCCGUACGGAACG
4. GUUCCGUUCGCGUAAUGGUAACGUGGCUCCCUCCUAAGGAGAAGACUGCGGGUUCGAGUCGCGUACGGAACG
5. GUUCCGUUGGCGUCAUGGUAAUGCGUCUCCCUCCUAAGGAGAAGACUGCGGGUUCGAGUCCCGUACGGAACG
6. GUUCCGUUAGCGUAAUGGUAACGCGUCCCCCUCCUAUGGAGAAGACAGCGGGUUCGAGUCUCGUACGGAACG
7. GUUCCGUUGGCGCAAUGGUAACGCGUCUCCCUCCUAAGGAGAAGACUGCGGGUUCGAGUCCCGUGCGGAACG

Result:
1: 0.932; 2: 0.578; 3: 0.743; 4: 0.504; 5: 0.61; 6: 0.871; 7: 0.956

Need yeast fitness for each of these variants.
1. GUUCAGUUGGCGUAAUGGUAGCGCGUCUCCGUCCUAAGGAGAAGACUGCGGGUUCGAGUCCCGUACGGAACG
2. GUUCCGUUGGCGUAAUGGUAAUGCGUCUCCCUCCUAAGGAGAUGACUGCGGGUUGGAGUCCCGUACGGAACG
3. GUUCCGUUGGCGUAAUGGUAACGCGUCUCUCUCCUAAGGAGAAGACUGCGGGGUCGAGUCCCGUACGGAACG
4. GUUCGGUUGGCGUAAUGGCAACGUGUCUCCCUCCUAAGGAGAAGACUGCGGGUUCGAGUCCCGUACGGAACG
5. GUUCCGUUGGCGUAAUGGUAACGCGUCACCCUCCUAAGGAGAAGACUGCGGGUUCGAGUCCCGUACCGAACG
6. GUUCCGUUGGCGUAAUGGUAACGCAUCUCCUUCCUAAGGAGAAGACUGCGGGUUCGAGUCCCGUACGGAACG
7. GUUCCGUUGGCGUAAUGGUAACGCGUCUCCUUUCUAAGGAGAAGACUGCGGGUUCGAGUCCCGUACGGAACG
8. GUUCCGUUGGCGUAAUGGUAACGCGUCUCCCUCCUAACAAGACGACUGCGGGUUCGAGUGCCGUCCGGAACG

Result:
1. 0.62
2. 0.595
3. 0.618
4. 0.684
5. 0.774
6. 0.923
7. 0.723
8. 0.518

Need yeast fitness for each of these variants.
1. GCUCCGUUGGCGUAAUGCUAACCCGUCUCCCUUCUAAGAAGAUGACUGCGGGUUCGAGUCCACUACGGAACG
2. GUUCCGUUAGCGGAAUGGUAACGCGUCUCCCUCCUGAGGAGAAGACUGCGGGUUCGAGACCCGUACGGAACG
3. GUUCCGUUGGCGUAAUGGUAGCGCGUCUCCCUGCUAAGGGGAAGACUGCGGGUUCGAGUCCCGUACGGAACG

Result:
[0.851, 0.68, 0.562]
